These data points were gathered from patent US20100184802A1.

Would you mind telling me the reported inhibition at 0.1 µM of each entry?
# targetSystem: P2X7 receptor (IL-1β release from THP-1 cells) (Homo sapiens, UniProt Q99572)
# Construct: host or cells: THP-1 cells differentiated with LPS and IFN-γ
# Sequence (Q99572 whole entry): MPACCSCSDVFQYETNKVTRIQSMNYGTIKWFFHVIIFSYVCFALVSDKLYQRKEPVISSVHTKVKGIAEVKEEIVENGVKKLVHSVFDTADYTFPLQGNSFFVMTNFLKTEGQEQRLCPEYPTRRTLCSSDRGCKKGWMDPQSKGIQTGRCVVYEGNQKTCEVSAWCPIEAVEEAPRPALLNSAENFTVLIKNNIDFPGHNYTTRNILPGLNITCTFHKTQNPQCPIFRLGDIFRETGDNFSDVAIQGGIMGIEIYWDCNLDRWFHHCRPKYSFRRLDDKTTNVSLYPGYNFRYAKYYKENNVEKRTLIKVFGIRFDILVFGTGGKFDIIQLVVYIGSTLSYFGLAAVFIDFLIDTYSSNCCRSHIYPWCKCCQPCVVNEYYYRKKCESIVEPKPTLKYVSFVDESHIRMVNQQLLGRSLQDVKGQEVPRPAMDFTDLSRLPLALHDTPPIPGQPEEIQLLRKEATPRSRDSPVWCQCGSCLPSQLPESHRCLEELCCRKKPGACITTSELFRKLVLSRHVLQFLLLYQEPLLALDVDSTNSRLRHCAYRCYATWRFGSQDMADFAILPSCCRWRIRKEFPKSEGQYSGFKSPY
# assay: IL-1β release assay in differentiated THP-1 cells stimulated with BzATP (Example 9)
# Type: cell-based
# assayConditions: 0.1 μM concentration, BzATP 250 uM, read-out: IL-1β % Inhib. @ 0.3 or 0.1 μM

These solved cases illustrate the format of a correct answer.
C[C@H]1CC[C@H](C(=O)Nc2cccc3c(=O)n(CC4(O)CCCCC4)ccc23)CC1	0 to 25%
CC(C)(O)Cn1ccc2c(NC(=O)CC3C[C@@H]4CC[C@H]3C4)cccc2c1=O (stereo partly drawn)	26 to 50%
CC(O)Cn1ccc2c(NC(=O)C3C[C@@H]4CC[C@H]3C4)cccc2c1=O (stereo partly drawn)	26 to 50%
NC(=O)[C@H](Cc1ccccc1)n1ccc2c(NC(=O)CC34CC5CC(CC(C5)C3)C4)cccc2c1=O	51 to 75%
CC(C)(O)Cn1ccc2c(NC(=O)C3C[C@@H]4CC[C@H]3C4)cccc2c1=O (stereo partly drawn)	26 to 50%

From here, focus on the item given below.
Check the records and state inhibition at 0.1 µM for CC(C)(O)Cn1ccc2c(NC(=O)[C@H]3CC[C@H](C)CC3)cccc2c1=O
0 to 25%

---

# targetSystem: P2X7 receptor (IL-1β release from THP-1 cells) (Homo sapiens)
# Construct: host or cells: THP-1 cells differentiated with LPS and IFN-γ
# assay: IL-1β release assay in differentiated THP-1 cells stimulated with BzATP (Example 9)
# Assay type: cell-based
# assayConditions: 0.3 μM concentration, BzATP 250 uM, read-out: IL-1β % Inhib. @ 0.3 or 0.1 μM
outcomeMeasure: inhibition at 0.3 µM

// batch mode: one inhibition at 0.3 µM value per listed entry
1. C[C@H](C(N)=O)n1ccc2c(NC(=O)CC34CC5CC(CC(O)(C5)C3)C4)cccc2c1=O
2. CC(C)[C@H](C(=O)NC1CC1)n1ccc2c(NC(=O)CC3CCCCCC3)cccc2c1=O
3. CC(C)(C)OC(=O)N1CCC(C(=O)Nc2cccc3c(=O)n(CCO)ccc23)CC1

["> 76%", "> 76%", "0 to 25%"]

// batch mode: one inhibition at 0.3 µM value per listed entry
1. C[C@@H](CO)N1CCc2c(NC(=O)CC34CC5CC(CC(C5)C3)C4)cccc2C1=O
2. CC1(C)CC(CC(=O)Nc2cccc3c(=O)n(CCO)ccc23)CC(C)(C)C1
3. CC(C)[C@H](C(=O)O)n1ccc2c(NC(=O)CC34CC5CC(CC(C5)C3)C4)cccc2c1=O
4. CC(C)[C@H](C(=O)NC1CC1)n1ccc2c(NC(=O)CC34CC5CC(CC(C5)C3)C4)cccc2c1=O

1. > 76%
2. > 76%
3. > 76%
4. 26 to 50%

// batch mode: one inhibition at 0.3 µM value per listed entry
1. CC(C)(C)OC(=O)N1CCC(CC(=O)Nc2cccc3c(=O)n(CCO)ccc23)CC1
2. NC(=O)C(Cc1c[nH]cn1)n1ccc2c(NC(=O)CC34CC5CC(CC(C5)C3)C4)cccc2c1=O (stereo not shown)
3. CC1(C)CCCC(O)(CC(=O)Nc2cccc3c(=O)n(CCO)ccc23)C1 (stereo not shown)

1: 0 to 25%; 2: > 76%; 3: 51 to 75%
